Some compounds, each annotated with its measured Inhibition percentage (±SD) Post-biofilm formation.
- Test system: E. coli XL1 blue
- assayInfo: Anti-biofilm activity against E. coli XL1 blue biofilms
- Format: cell-based, Escherichia coli
- experimentalContext: tested at IC50 conc. measured against S. aureus ATCC 25923
measuredParameter: Inhibition percentage (±SD) Post-biofilm formation

• CC(C)c1ccc2c(c1)CC[C@H]1[C@](C)(C(=O)N[C@@H](Cc3ccccc3)C(=O)O)CCC[C@]21C = 30.4 (±6.1) %
• CC(C)C[C@H](NC(=O)[C@]1(C)CCC[C@]2(C)c3ccc(C(C)C)cc3CC[C@@H]12)C(=O)O = 39.9 (±4.6) %
• CC(C)c1ccc2c(c1)CC[C@H]1[C@](C)(C(=O)N[C@@H](CC3CCCCC3)C(=O)O)CCC[C@]21C = 14.2 (±13.1) %
• CC(C)c1ccc2c(c1)CC[C@H]1[C@](C)(C(=O)N[C@H](Cc3c[nH]c4ccccc34)C(=O)O)CCC[C@]21C = 6.7 (±7.2) %
